biological target: Full length human SIRPα v1 with beta-gal fragment (ED) at its C-terminal, in K562 cells (human, UniProt P78324 31-504); assay: cell-based or functional assay
Sequence (P78324 31-504): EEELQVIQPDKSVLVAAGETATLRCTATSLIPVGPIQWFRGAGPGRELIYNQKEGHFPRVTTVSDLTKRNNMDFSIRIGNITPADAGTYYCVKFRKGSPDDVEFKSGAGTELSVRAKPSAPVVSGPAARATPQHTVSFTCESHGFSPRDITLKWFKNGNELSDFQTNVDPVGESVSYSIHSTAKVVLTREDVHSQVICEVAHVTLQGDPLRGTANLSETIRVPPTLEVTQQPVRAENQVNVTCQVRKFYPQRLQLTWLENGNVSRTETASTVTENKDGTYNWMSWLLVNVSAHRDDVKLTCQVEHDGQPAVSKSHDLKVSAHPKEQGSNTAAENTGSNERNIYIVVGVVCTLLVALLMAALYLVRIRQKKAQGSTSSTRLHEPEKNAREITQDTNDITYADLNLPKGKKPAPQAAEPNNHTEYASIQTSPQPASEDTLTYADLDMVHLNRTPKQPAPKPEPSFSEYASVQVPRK
quantity.name: TOP blocking (SHP-1 recruitment) (%)
Express it in %; write the number only.

Below, 2 binders whose answers are already recorded.
Humanized anti-SIRPα antibody hu025.059 (antibody, V domains shown, Humanized from C25) VH: EVQLVQSGAEVKKPGATVKISCKASGFNIKDYYMHWVQQAPGKGLEWIGRIDPEDAETKYAPKFQGRVTITADTSTNTAYMELSSLRSEDTAVYYCDRGLAYWGQGTLVTVSS VL: EIVLTQSPATLSLSPGERATLSCSASSSVSSSYLYWYQQKPGQAPKLWIYSTSNLASGIPARFSGSGSGTDYTLTISSLEPEDFAVYYCHQWSSYPYTFGQGTKLEIK | 78.8
Anti-SIRPα antibody C25 (antibody, V domains shown, Mouse variable regions; also called 025c; 025) VH: EVQLQQSGAELVKPGASVKLSCTASGFNIKDYYMHWVKQRTEQGLEWIGRIDPEDGETKYAPKFQGKATITADTSSNTAYLQLSSLTSEDTAVYYCDRGLAYWGQGTLVTVSA VL: QIVLTQSPAIMSASPGEKVTLTCSASSSVSSSYLYWYQQKPGSSPKLWIYSTSNLASGVPARFSGSGSGTSYSLTISSMEAEDAASYFCHQWSSYPYTFGGGTKLEIK | 87

Look up and report measured TOP blocking (SHP-1 recruitment) for this entry: Humanized anti-SIRPα antibody hu025.060 (antibody, V domains shown, Humanized from C25) VH: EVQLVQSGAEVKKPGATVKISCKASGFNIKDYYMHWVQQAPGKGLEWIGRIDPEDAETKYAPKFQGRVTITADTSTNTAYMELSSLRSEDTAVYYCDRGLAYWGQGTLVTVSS VL: EIVLTQSPATLSLSPGERATLSCSASSSVSSSYLYWYQQKPGQAPKLWIYSTSNLASGIPARFSGSGSGTDFTLTISSLEPEDFAVYYCHQWSSYPYTFGQGTKLEIK
87.5
